Parameter: selectivity ratio. Scope: all listed entries.
# protocol details: Selectivity index, ratio of CC50 for MDCK cells to IC50 for Influenza A virus (A/Puerto Rico/8/34 (H1N1)) infected in MDCK cells
# Type: toxicity, cell-based
# reported conditions: dog, read-out: Ratio CC50/IC50

I'd like to know its selectivity ratio. The molecule in question is COc1ccc([C@H]2CC(C)(O)[C@@H]3CC[C@@H](C)C[C@H]3O2)c(OC)c1 (some centres undefined)
12

Look up selectivity ratio: C[C@@H]1CC[C@@H]2[C@@H](C1)O[C@@H](c1ccc([N+](=O)[O-])cc1)CC2(C)O (some centres undefined)
3

Using the record for COc1ccc(OC)c([C@H]2CC(C)(F)[C@@H]3CC[C@@H](C)C[C@H]3O2)c1 (some centres undefined) , report its selectivity ratio.
1

Item COc1cccc([C@H]2CC(C)(F)[C@@H]3CC[C@@H](C)C[C@H]3O2)c1OC (some centres undefined) has what recorded selectivity ratio?
4

====

# System: Influenza A virus
# protocol details: Antiviral activity against Influenza A virus (A/Puerto Rico/8/34 (H1N1) infected in MDCK cells assessed as decrease in viral titer preincubated for 1 hr followed by viral infection and cultivated for 48 hrs followed by supernatant transferred to chicken erythrocyte for 1 hr followed by measuring ability to cause positive hemagglutination
# Type: functional, organism-based
# reported conditions: A/Puerto Rico/8/1934(H1N1)
measured quantity: IC50

[
  {
    "compound": "COc1ccc(OC)c([C@H]2CC(C)(O)[C@@H]3CC[C@@H](C)C[C@H]3O2)c1 (stereo not given in full)",
    "IC50": "> 312 µM"
  },
  {
    "compound": "COc1ccc([C@H]2CC(C)(F)[C@@H]3CC[C@@H](C)C[C@H]3O2)cc1 (stereo not given in full)",
    "IC50": "> 103 µM"
  },
  {
    "compound": "COc1cc([C@H]2CC(C)(F)[C@@H]3CC[C@@H](C)C[C@H]3O2)ccc1O (stereo not given in full)",
    "IC50": "> 324 µM"
  }
]

Quick check: IC50 of C[C@@H]1CC[C@@H]2[C@@H](C1)O[C@@H](c1ccccc1)CC2(C)F (stereo not given in full) ?
> 38 µM

Look up IC50: C[C@@H]1CC[C@@H]2[C@@H](C1)O[C@@H](c1ccc(F)cc1)CC2(C)O (stereo not given in full)
> 36 µM

====

Attribute: CC50 at 48 h
# protocol details: Cytotoxicity against MDCK cells assessed as cell death incubated for 48 hrs by MTT assay
# Assay type: cell-based, Canis lupus familiaris
# reported conditions: dog

Answered cases to consult:
[
  {
    "compound": "C[C@@H]1CC[C@@H]2[C@@H](C1)O[C@@H](c1ccc([N+](=O)[O-])cc1)CC2(C)O (stereo partly drawn)",
    "measured quantity": "CC50 at 48 h",
    "measured result": "> 982 µM"
  },
  {
    "compound": "COc1ccc([C@H]2CC(C)(O)[C@@H]3CC[C@@H](C)C[C@H]3O2)c(OC)c1OC (stereo partly drawn)",
    "measured quantity": "CC50 at 48 h",
    "measured result": "> 857 µM"
  }
]

Look up CC50 at 48 h for this compound: COc1cccc([C@H]2CC(C)(O)[C@@H]3CC[C@@H](C)C[C@H]3O2)c1OC (stereo partly drawn)
> 937 µM
